Target: Melanin-concentrating hormone receptor 1 (Homo sapiens)
Sequence (Q99705 whole entry): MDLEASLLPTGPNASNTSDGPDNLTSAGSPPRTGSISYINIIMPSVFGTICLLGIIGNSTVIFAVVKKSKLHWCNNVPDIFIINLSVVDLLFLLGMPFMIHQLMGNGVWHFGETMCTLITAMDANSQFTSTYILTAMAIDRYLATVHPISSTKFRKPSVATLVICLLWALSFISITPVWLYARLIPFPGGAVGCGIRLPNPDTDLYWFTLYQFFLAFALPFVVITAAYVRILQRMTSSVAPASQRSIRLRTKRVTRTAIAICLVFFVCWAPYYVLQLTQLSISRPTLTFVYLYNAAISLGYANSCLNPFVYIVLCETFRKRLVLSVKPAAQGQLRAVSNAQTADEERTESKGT
Assay: Displacement of [125I][Phe13, Tyr19]MCH from human recombinant MCHR1 expressed in CHO cells
Using Ki as the sorting value, the categories are c1 = under 200 nM, c2 = from 200 nM up to 400 nM, c3 = 400 nM and over

• O=C1N/C(=C\c2ccc(CNCc3ccccc3)cc2)C(=O)N1c1ccc(Oc2ccccc2)cc1 = c3
• COc1cc(Nc2nc(-c3ccc(Oc4ccccc4)cc3)cs2)ccc1OCCN1CCCC1 = c3
• O=C1N/C(=C\c2ccc(CNC3CCCC3)cc2)C(=O)N1c1ccc(Oc2ccccc2)cc1 = c3
• COc1cc(NC(=S)Nc2ccc(Oc3ccccc3)cc2)ccc1OCCN1CCCC1 = c3
• COc1cc(NC(=O)Nc2ccc(Oc3ccccc3)cc2)ccc1OCCN1CCCC1 = c1
• CC(=O)N1CCN(Cc2ccc(/C=C3\NC(=O)N(c4ccc(Oc5ccccc5)cc4)C3=O)cc2)CC1 = c3
• COc1cc(N2C(=O)CN(c3ccc(-c4ccccc4)cc3)C2=O)ccc1OCCN1CCCC1 = c3
• O=C1N/C(=C\c2ccc(CN3CCC(O)C3)cc2)C(=O)N1c1ccc(Oc2ccccc2)cc1 (racemic) = c1
• COc1cc(N2C(=O)CN(c3ccc(Oc4ccccc4)cc3)C2=O)ccc1OCCN1CCCC1 = c2
• COc1cc(NC(=O)Nc2ccc(-c3ccccc3)cc2)ccc1OCCN1CCCC1 = c2
• CN(C)CC1CCc2cc(NC(=O)c3ccc(-c4ccc(F)cc4)cc3)ccc2C1 (centres undefined) = c1
• COc1cc(NC(=O)c2ccc(-c3ccccc3)cc2)ccc1OCCN1CCCC1 = c1
• CN(C)Cc1ccc(/C=C2\NC(=O)N(c3ccc(Oc4ccccc4)cc3)C2=O)cc1 = c2
• COc1cc(N2CC(=O)N(c3ccc(-c4ccccc4)cc3)C2=O)ccc1OCCN1CCCC1 = c3
• O=C1N/C(=C\c2ccc(CN3CCN(Cc4ccccc4)CC3)cc2)C(=O)N1c1ccc(Oc2ccccc2)cc1 = c3
• COc1cc(NC(=O)c2ccc(Oc3ccccc3)cc2)ccc1OCCN1CCCC1 = c1
• O=C1N/C(=C\c2ccc(CN3CCOCC3)cc2)C(=O)N1c1ccc(Oc2ccccc2)cc1 = c3
• O=C1N/C(=C\c2ccc(CN3CCCC3)cc2)C(=O)N1c1ccc(Oc2ccccc2)cc1 = c2
• O=C1N/C(=C\c2ccc(CN3CCCCC3)cc2)C(=O)N1c1ccc(Oc2ccccc2)cc1 = c3
